# assay_method_text: protein stability index of a GFP-peptide fusion (GPS, HEK-293T) (PSI 1-6); higher = more stable;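 note: 24-mer peptide tiles fused after GFP, lentivirally expressed, FACS-sorted into six equal bins by GFP/DsRed ratio, decoded by Illumina sequencing, PSI is the read-weighted mean bin number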
# assay_setup: treatment: DMSO; c terminus: a fixed tail appended
Answer f if protein stability index is under 4, and t if it is 4 or more.

# biopolymer_sequence, assigned_label
rows = [
    ("IEADRRRAQLHVQGLLHEAGSTDD [SPNS1]", "t"),
    ("APKGKGRKPAAGAQSAGTQQVAAV [BRD3]", "t"),
]

Given the entry DIARMLYKDTCHELDELQLCKNCF [ZMYND11] , answer whether its protein stability index meets or surpasses 4.
f

Next sequence: TAAASRERQEEQSAAIHISETLEQ [EPB41L3]
t

Next sequence: AITTDCLQILAYGNQESKLIILAS [CTNNB1]
f

Next sequence: EPSSPASLTDSVNHHSPGGSSDAS [ESRRG]
t

Next sequence: QLQVESNSSQLLLRRHAGLLDGLA [SCARA5]
f

====

# assay_method_text: protein stability index of a GFP-peptide fusion (GPS, HEK-293T) (PSI 1-6); higher = more stable
# assay_setup: treatment: MLN4924 1 uM, 8 h; c terminus: a fixed tail appended
measurement_name: protein stability index
Form rule: numeric answer, no unit written next to it.

# biopolymer_sequence, measured
data = [
    ("DGSVLLIPRTMADQQARRQERKPK [NFE2L1]", 3.63),
    ("VSRREGALGWAPAAPPPLKDDPEG [ZBED3]", 5.43),
    ("PNTLYEGGYFKAHIKFPIDYPYSP [UBE2R2]", 2.21),
]

Then this sequence:
Value lookup for protein stability index; key = NEKEKALQAQVQYQQQHEQQKKDL [SASS6]
5.48

====

# assay_method_text: protein stability index of a GFP-peptide fusion (GPS, HEK-293T) (PSI 1-6); higher = more stable
# assay_setup: treatment: DMSO; c terminus: a fixed tail appended
Answer 0.0 if protein stability index is under 3, and 1.0 if it is 3 or more.

Before answering, review these 3 worked examples.
# biopolymer_sequence, assigned_label
records = [
    ("VDADAGHNAWLSYSLLPQSTAPGL [PCDHGC5]", 0.0),
    ("EETVTMLEDVERELDGPKQIFFGR [ZNF396]", 1.0),
    ("NRKRECGNAHYQRADFVLAANSYD [FKBP8]", 1.0),
]

Given the entry GAHSNAPITAHAEVEVVEEAKCCC [CSNK1G1] , answer whether its protein stability index meets or surpasses 3.
1.0

Next sequence: FDFERSGLQHAPEPDAADGPYDPN [SMAD6]
1.0

Next sequence: MSKLLKRQNDILQVVSQGWKYFKG [CD207]
0.0

Next sequence: NLLPAAGELQESGLALCPEVQDLL [SMG5]
1.0

Next sequence: QILLEWCRSKTLGYQHVDLQNFSS [SMTNL2]
0.0

Next sequence: GFFDVLGNDRRREWAALGNMSKED [ACBD3]
1.0

====

// reported protein stability index for each item listed
# assay_method_text: protein stability index of a GFP-peptide fusion (GPS, HEK-293T) (PSI 1-6); higher = more stable
# assay_setup: treatment: DMSO; c terminus: a fixed tail appended
Form rule: numeric answer, no unit written next to it.

Sample answers from the record:
# biopolymer_sequence, protein stability index
records = [
    ("DSLWHRSDSAPRNKISRFQAPISA [MFF]", 3.43),
    ("AAQPMTKKRKVDGLSTEAEQPFIP [PRAME]", 4.43),
    ("TSRAPSTYTYTSRPRALPCQRSRY [RSPH3]", 3.65),
    ("ECKHPSVFQHGDNSFRLLFDVVVI [MCOLN1]", 2.9),
    ("PGDMLLQVNEINFENMSNDDAVRV [DVL3]", 4.4),
    ("NSLLEEETILHFFVQILLALHHVH [NEK8]", 2.38),
]

Then this sequence:
Value lookup for protein stability index; key = LDMEKRRCRQSLEDSESLRIKEVE [LRRC45]
4.79

Origin of measurements: the supplement of paper PMC10567573
